Assay: Biodistribution in mice bearing PC-3 xenografts
Assay type: in vivo, Balb/c nu/nu mice
Conditions: female, Balb/c nu/nu, mouse, whole blood, iv, total radioactivity, 3 h pi, 40–50 pmol iv, female Balb/c nu/nu mice with PC-3 xenografts, average ± SD, n = 3–4; read-out: Uptake, Blood
Property Label: tissue uptake at 3 h (%ID/g)
Kindly provide the numeric value in %ID/g only, without the unit symbol.

Output tissue uptake at 3 h of CC(C)C[C@H](NC(=O)C[C@H](O)[C@H](CC(C)C)NC(=O)[C@H](Cc1c[nH]cn1)NC(=O)CNC(=O)[C@@H](NC(=O)[C@H](C)NC(=O)[C@H](Cc1c[nH]c2ccccc12)NC(=O)[C@H](CCC(N)=O)NC(=O)[C@@H](Cc1ccccc1)NC(=O)COCCOCCNC(=O)CN1CCN(CC(=O)O)CCN(CC(=O)O)CC1)C(C)C)C(N)=O [[^66Ga]Ga-NOTA-PEG2-RM26, metal not drawn] 0.15

====

Experiment: Biodistribution in mice bearing PC-3 xenografts
Assay type: in vivo, Balb/c nu/nu mice
Conditions: female, Balb/c nu/nu, mouse, liver, iv, total radioactivity, 3 h pi, 40–50 pmol iv, female Balb/c nu/nu mice with PC-3 xenografts, average ± SD, n = 3–4; read-out: Uptake, Liver
Property Label: tissue uptake at 3 h (%ID/g)
Kindly provide the numeric value in %ID/g only, without the unit symbol.

Output tissue uptake at 3 h of CC(C)C[C@H](NC(=O)C[C@H](O)[C@H](CC(C)C)NC(=O)[C@H](Cc1c[nH]cn1)NC(=O)CNC(=O)[C@@H](NC(=O)[C@H](C)NC(=O)[C@H](Cc1c[nH]c2ccccc12)NC(=O)[C@H](CCC(N)=O)NC(=O)[C@@H](Cc1ccccc1)NC(=O)COCCOCCNC(=O)CN1CCN(CC(=O)O)CCN(CC(=O)O)CC1)C(C)C)C(N)=O [[^66Ga]Ga-NOTA-PEG2-RM26, metal not drawn] 0.28

====

Assay: Biodistribution in mice bearing PC-3 xenografts
Type: in vivo, Balb/c nu/nu mice
Conditions: female, Balb/c nu/nu, mouse, tumor (PC-3 xenograft), iv, total radioactivity, 3 h pi, 40–50 pmol iv, female Balb/c nu/nu mice with PC-3 xenografts, average ± SD, n = 3–4; read-out: Uptake, Tumor
Property Label: tissue uptake at 3 h (%ID/g)
Kindly provide the numeric value in %ID/g only, without the unit symbol.

Output tissue uptake at 3 h of CC(C)C[C@H](NC(=O)C[C@H](O)[C@H](CC(C)C)NC(=O)[C@H](Cc1c[nH]cn1)NC(=O)CNC(=O)[C@@H](NC(=O)[C@H](C)NC(=O)[C@H](Cc1c[nH]c2ccccc12)NC(=O)[C@H](CCC(N)=O)NC(=O)[C@@H](Cc1ccccc1)NC(=O)COCCOCCNC(=O)CN1CCN(CC(=O)O)CCN(CC(=O)O)CC1)C(C)C)C(N)=O [[^66Ga]Ga-NOTA-PEG2-RM26, metal not drawn] 14
